# Tested System: rhIL-6-His (recombinant human IL-6, Val30 to Met212, C-terminal 6 His) (human, UniProt P05231 30-212)
# Sequence (P05231 other isoform, or with tags, fused parts or gaps limits assumed): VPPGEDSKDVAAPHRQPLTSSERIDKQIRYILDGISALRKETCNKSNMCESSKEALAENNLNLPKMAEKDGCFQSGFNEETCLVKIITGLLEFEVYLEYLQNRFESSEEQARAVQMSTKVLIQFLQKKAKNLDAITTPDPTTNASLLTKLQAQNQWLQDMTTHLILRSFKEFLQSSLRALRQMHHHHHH
# Assay Method Text: competition ELISA: antibody pre-incubated with rhIL-6-His, binding to coated rhIL-6R detected with anti-His-HRP
Metric Name: IC50 (µg/mL)
Reply with just the number (in µg/mL).

>>> obs_value("HZ-0408c (antibody, human IgG1, kappa, V domains shown, Humanized from murine 140-4; IgG1 type antibody from 293F cells; also called L2/H3) VH: QVTLKESGPVLVKPTETLTLTCTVSGFSLSTSGMGVGWIRQPPGKALEWLAHIWWDDDKRYNSALKSRLTISKDTSKSQVVLTMTNMDPVDTATYYCARIGGLYVDYLMDYWGQGTLVTVSS VL: EIVLTQSPATLSLSPGERATLSCRASQSISDYLHWYQQKPGQAPRLLIYYASQSISGIPARFSGSGSGTDFTLTISSLEPEDFAVYYCQNGHSFPWTFGQGTKVEIKR")
1.29

// HZ-0408d (antibody, human IgG1, kappa, V domains shown, Humanized from murine 140-4; IgG1 type antibody from 293F cells; also called L3/H3) VH: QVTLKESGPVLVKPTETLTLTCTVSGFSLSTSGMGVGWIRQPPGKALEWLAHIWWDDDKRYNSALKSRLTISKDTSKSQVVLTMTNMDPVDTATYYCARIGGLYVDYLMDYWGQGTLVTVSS VL: DIQMTQSPSSLSASVGDRVTITCRASQSISDYLHWYQQKPGKAPKLLIYYASQSISGVPSRFSGSGSGTDFTLTISSLQPEDFATYYCQNGHSFPWTFGQGTKVEIKR : IC50 value = 3.04

The measured values listed here are drawn from patent US20210395357A1.
